Species on record: Rattus norvegicus
Assay: In vitro anti-oxytocic activity on isolated estrogen treated rat uteri without Mg+2; Agonist
Assay type: functional
Where a SMILES comes first, the peptide text is derived from it.
Each record here notes measured agonist potency.

compound	agonist potency / units/mg
N=C(N)NCCC[C@@H](NC(=O)[C@@H]1CCCN1C(=O)[C@@H]1CSSCCC(=O)N[C@@H](Cc2ccc(O)cc2)C(=O)N[C@@H](Cc2ccccc2)C(=O)N[C@@H](CCC(N)=O)C(=O)N[C@@H](CC(N)=O)C(=O)N1)C(=O)NCC(N)=O (stereo in doubt; form 1) [DESMOPRESSIN]	54
CC(C)[C@@H]1NC(=O)[C@H](Cc2ccccc2)NC(=O)[C@H](Cc2ccc(O)cc2)NC(=O)CCSSC[C@@H](C(=O)N2CCC[C@H]2C(=O)N[C@@H](CCCN=C(N)N)C(=O)NCC(N)=O)NC(=O)[C@H](CC(N)=O)NC1=O (HELM PEPTIDE1{[O=C(CCS[*:3])[*:2]].Y.F.V.N.C.P.R.G.[am]}$PEPTIDE1,PEPTIDE1,1:R3-6:R3$$$V2.0)	31
CC(C)[C@@H]1NC(=O)[C@H](Cc2ccccc2)NC(=O)[C@H](Cc2ccc(O)cc2)NC(=O)CCSSC[C@@H](C(=O)N2CCC[C@H]2C(=O)N[C@H](CCCNC(=N)N)C(=O)NCC(N)=O)NC(=O)[C@H](CC(N)=O)NC1=O (HELM PEPTIDE1{[O=C(CCS[*:3])[*:2]].Y.F.V.N.C.P.[dR].G.[am]}$PEPTIDE1,PEPTIDE1,1:R3-6:R3$$$V2.0)	8
N=C(N)NCCC[C@@H](NC(=O)[C@@H]1CCCN1C(=O)[C@@H]1CSSCCC(=O)N[C@@H](Cc2ccc(O)cc2)C(=O)N[C@@H](Cc2ccccc2)C(=O)N[C@@H](CCC(N)=O)C(=O)N[C@@H](CC(N)=O)C(=O)N1)C(=O)NCC(N)=O (stereo in doubt; form 2) [DESMOPRESSIN]	1.5
